tested on: NOMO1; assay: AUC of viability dose-response curve (% viability x log10 dose units); higher = less sensitive; conditions: RPMI 5 mM glucose + 10% dialyzed FBS; 48 h
endpointName: AUC of viability dose-response curve
Could you respond with only the numeric value?

Illustrative cases are given below, each with its answer.
compound: CN1C(=O)c2sccc2N(C)c2nc(Nc3ccc([S+](N)(=O)[O-])cc3)ncc21
targetUnderTest: NOMO1
AUC of viability dose-response curve: 378

compound: COC1=CC=C(C=C1)/C2=C(O)/C(=O)C3=C(O)C=C(O)C(=C3O2)CC=C(C)C
targetUnderTest: NOMO1
AUC of viability dose-response curve: 464

compound: Cc1cc(Nc2ncc3c(n2)N(C)C(=O)N(c2cc(NC(=O)c4cccc(C(F)(F)F)c4)ccc2C)C3)n(C)n1
targetUnderTest: NOMO1
AUC of viability dose-response curve: 357

compound: CCn1nnc2c(N3CCOCC3)nc(-c3ccc(NC(=O)Nc4ccc(C(=O)N5CCN(C)CC5)cc4)cc3)nc21
targetUnderTest: NOMO1
AUC of viability dose-response curve: 341

Tested system NOMO1; AUC of viability dose-response curve recorded for "CCn1c(=O)c2c(nc(/C=C/c3ccc(OC)c(OC)c3)n2C)n(CC)c1=O" was 436

The reported AUC of viability dose-response curve value, NOMO1, for "CN(C)C/C=C/C(=O)Nc1ccc(C(=O)Nc2cccc(Nc3ncc(Cl)c(-c4c[nH]c5ccccc45)n3)c2)cc1" reads 235

// assay NOMO1, entry CC(C)C1CCC(C(=O)N[C@H](Cc2ccccc2)C(=O)O)CC1 (stereo partly specified) , AUC of viability dose-response curve value = 446

GET /values?item= "O=C(c1cncc(Br)c1)N1CCC(N2CCCC2)CC1" &system= NOMO1 returns AUC of viability dose-response curve: 450

Tested on NOMO1: "COc1c(Cl)cc2c([nH]c3cnccc32)c1NC(=O)c1cccnc1C" . Observed AUC of viability dose-response curve: 471

AUC of viability dose-response curve value, target or system NOMO1, for "O=C1N(c2ccccc2)c2ccccc2C1(Cc1ccncc1)Cc1ccncc1" : 465

// returns AUC of viability dose-response curve for "O=C1NC(=O)/C(=C/c2ccc3nccnc3c2)S1" with NOMO1; value = 439

Noted AUC of viability dose-response curve for "CN1C(=O)/C(=C(NC2=CC=C(I)C=C2F)\C3=C1\N=C/N(C[C@@H](O)CO)C3=O)F" , tested on NOMO1: 216
